Tested on: HeLa
assay_text: Cytotoxicity against human HeLa cells incubated for 48 hrs by SRB assay
Type: functional, cell-based
Overview of reported IC50 across a group of compounds:
Give the value, in units of µM, as a plain number.

C=C1[C@@H]2CC[C@@]3(C)[C@H](c4ccoc4)OC(=O)C[C@]13O[C@H]1C[C@H](OC(C)=O)C(C)(C)[C@H](CC(=O)OC)[C@]12C : 61

Next item in the queue.
Query block: IC50 for C=C1[C@@H]2CC[C@@]3(C)[C@H](c4ccoc4)OC(=O)C[C@]13O[C@H]1C[C@H](OC(=O)CN3CCN(C(=O)c4ccccc4)CC3)C(C)(C)[C@H](CC(=O)OC)[C@]12C ?
Result block: 14
